measurement notes: Cytotoxicity against human LX2 cells assessed as mortality rate at 1 to 30 uM incubated for 24 hrs by Sulfonyl Rhodamine B assay
Format: toxicity, cell-based
conditions used: lx-2, 24 h, dose 1-30 µM
assay endpoint: Activity

O=C(Nc1ccccc1NS(=O)(=O)c1cccc([N+](=O)[O-])c1)c1cc(Cl)c(Cl)c(Cl)c1 = Toxic
O=C(Nc1ccccc1NS(=O)(=O)c1ccc([N+](=O)[O-])cc1)c1cc(Cl)c(Cl)c(Cl)c1 = Non-Toxic
O=C(Nc1cc(Cl)c(Cl)c(Cl)c1)c1ccccc1NS(=O)(=O)c1cccc([N+](=O)[O-])c1 = Non-Toxic
O=C(Nc1ccccc1NS(=O)(=O)c1cccc(C(F)(F)F)c1)c1cc(Cl)c(Cl)c(Cl)c1 = Non-Toxic
